- Test Name: protein stability index of a GFP-peptide fusion (GPS, HEK-293T) (PSI 1-6); higher = more stable;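 also: 24-mer peptide tiles fused after GFP, lentivirally expressed, FACS-sorted into six equal bins by GFP/DsRed ratio, decoded by Illumina sequencing, PSI is the read-weighted mean bin number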
- Condition Notes: treatment: DMSO; c terminus: a fixed tail appended
As shown below, each of these sequences has a reported protein stability index value.

{"Item Sequence": "IPVFRLARRRKKILFYCHFPDLLL [ALG2]", "protein stability index": 2.88}
{"Item Sequence": "AVGDRQDGLREQLQAPVPPDSVPS [PBXIP1]", "protein stability index": 5.33}
{"Item Sequence": "AGLAPPSLFARAMQVLVTAISPGR [ANKRD9]", "protein stability index": 2.29}
{"Item Sequence": "MVGPLAQDPQSPMAGLRWLDSWDF [POMT2]", "protein stability index": 2.66}
{"Item Sequence": "NGEARQLPEDDGLEQDLQQVMVSG [ARFIP2]", "protein stability index": 5.36}
{"Item Sequence": "IYGMEGIPEKDMDERRRLLEQKTQ [ZNF207]", "protein stability index": 4.6}
{"Item Sequence": "TLRGTGATADFADVADDFENYHKL [NETO1]", "protein stability index": 4.4}

meta.source: the supplement of paper PMC10567573
